assayed system: hAhR (Homo sapiens, UniProt P35869)
Construct: Stably integrated DRE-luciferase cell lines were generated by transducing the both cell lines with Cignal XRE luciferase reporter; endogenous in cells
Sequence (P35869 11-848): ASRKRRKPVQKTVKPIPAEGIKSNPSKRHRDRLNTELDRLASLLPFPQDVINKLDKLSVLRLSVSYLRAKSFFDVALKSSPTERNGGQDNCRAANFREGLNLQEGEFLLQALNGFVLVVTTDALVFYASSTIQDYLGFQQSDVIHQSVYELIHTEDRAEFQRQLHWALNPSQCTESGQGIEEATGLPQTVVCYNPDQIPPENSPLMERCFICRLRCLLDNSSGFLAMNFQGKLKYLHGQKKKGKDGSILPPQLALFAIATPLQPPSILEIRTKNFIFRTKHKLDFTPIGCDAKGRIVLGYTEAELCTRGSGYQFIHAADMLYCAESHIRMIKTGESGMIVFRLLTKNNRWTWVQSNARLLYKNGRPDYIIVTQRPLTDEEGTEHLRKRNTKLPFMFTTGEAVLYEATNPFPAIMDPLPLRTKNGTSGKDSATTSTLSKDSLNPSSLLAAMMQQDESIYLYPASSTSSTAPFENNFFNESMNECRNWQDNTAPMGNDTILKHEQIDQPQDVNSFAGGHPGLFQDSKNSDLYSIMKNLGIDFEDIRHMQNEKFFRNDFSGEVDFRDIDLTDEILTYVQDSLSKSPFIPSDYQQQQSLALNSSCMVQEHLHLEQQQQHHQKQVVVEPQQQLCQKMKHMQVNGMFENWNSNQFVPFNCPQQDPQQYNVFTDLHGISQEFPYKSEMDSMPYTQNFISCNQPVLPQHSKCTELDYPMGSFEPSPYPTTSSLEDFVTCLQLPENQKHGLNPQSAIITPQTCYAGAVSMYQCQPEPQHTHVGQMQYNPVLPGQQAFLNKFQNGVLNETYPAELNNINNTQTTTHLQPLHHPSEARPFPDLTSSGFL
test summary: DRE-luciferase transcriptional reporter assay in HEPG2 DRE-Luc cells, TCDD-induced (antagonist mode)
measurement conditions: relative IC50, 3 nM TCDD, 24-hour incubation, firefly luciferase readout
Reported IC50 values for the following compounds.
readout name: IC50

compound | recorded value
Cc1cc(-c2ncc3cc(C(F)(F)F)ccc3n2)ccc1N1CCn2ncc(C#N)c2C1=O | < 200 nM
Cc1cc(N2CCOc3cnn(C)c3C2=O)c(C)cc1-c1ccc2nc(C(F)(F)F)cc(C)c2n1 | < 200 nM
Cc1cc(N2CCn3ncc(C)c3C2=O)c(F)cc1-c1ncc2cc(C(F)(F)F)ccc2n1 | < 200 nM
Cc1cc(-c2ncc3cc(C(F)(F)F)ccc3n2)ccc1N1CCn2nc(CN3CCC(F)CC3)c(C)c2C1=O | < 200 nM
Cc1cc(-c2ncc3cc(C(F)(F)F)ccc3n2)ccc1N1CCOc2cnn(C)c2C1=O | < 200 nM
Cc1cc(-c2ncc3cc(C(F)(F)F)ccc3n2)ccc1N1CCn2nc(CN(C)C)c(C)c2C1=O | < 200 nM
Cc1cc(-c2ccc3nc(C(F)(F)F)cc(C)c3n2)ccc1N1CCn2ncc(C)c2C1=O | < 200 nM
Cc1cc(-c2ncc3cc(C(F)(F)F)ccc3n2)ccc1N1CCn2nc(N)c(C)c2C1=O | < 200 nM
Cc1cc(-c2ncc3nc(F)ccc3n2)ccc1N1CCOc2cnn(C)c2C1=O | 200 to 500 nM
Cc1cc(N2CCOc3cnn(C)c3C2=O)c(C)cc1-c1ccc2nc(C(F)(F)F)ccc2n1 | 1000 to 10000 nM
Cc1cc(-c2ncc3cc(C(F)(F)F)ccc3n2)ccc1N1CCn2nc(CN3CCC4(CC3)COC4)c(C)c2C1=O | < 200 nM
CCOC(=O)c1nn(C)c2c1OCCN(c1ccc(-c3ncc4nc(C(F)(F)F)ccc4n3)cc1C)C2=O | < 200 nM
Cc1cc(-c2ncc3cc(C(F)(F)F)ccc3n2)ccc1N1CCn2ncc(C3NC(=O)NC3=O)c2C1=O (stereo not drawn) | < 200 nM
Cc1cc(-c2ncc3cc(C(F)(F)F)ccc3n2)ccc1N1CCn2nc(CN3CCC(=O)CC3)c(C)c2C1=O | < 200 nM
Cc1cc(-c2ncc3cc(C(F)(F)F)ccc3n2)ccc1N1CCOc2cnn(CC(=O)O)c2C1=O | 1000 to 10000 nM
Cc1cc(-c2ncc3nc(C(F)(F)F)ccc3n2)ccc1N1CCn2nc(CN3CCOCC3)c(C)c2C1=O | < 200 nM
Cc1cc(-c2ncc3cc(C(F)(F)F)ccc3n2)ccc1N1C(=O)c2[nH]ncc2OCC1C (stereo not drawn) | < 200 nM
Cc1cc(-c2ccc3nc(C(F)(F)F)ccc3n2)ccc1N1CCOc2cnn(C)c2C1=O | < 200 nM
Cc1cc(-c2ncc3cc(C(F)(F)F)ccc3n2)ccc1N1CCn2nc(C(C)O)c(C)c2C1=O (stereo not drawn) | < 200 nM
Cc1cc(N2CCn3ncc(C)c3C2=O)c(C)cc1-c1ccc2nc(C(F)(F)F)cc(C)c2n1 | < 200 nM
Cc1cc(-c2ncc3cc(C(F)(F)F)ccc3n2)ccc1N1CCn2ncc(C)c2S1(=O)=O | < 200 nM
Cc1cc(-c2ncc3cc(C(F)(F)F)cc(C)c3n2)ccc1N1CCn2ncc(C)c2C1=O | < 200 nM
Cc1cc(-c2ncc3cc(C(F)(F)F)ccc3n2)ccc1N1CCOc2cnn(Cc3nnn[nH]3)c2C1=O | 1000 to 10000 nM
Cc1cc(-c2ccc3nc(C(F)(F)F)ccc3n2)ccc1N1C(=O)c2[nH]ncc2OCC1C (stereo not drawn) | < 200 nM
Cc1cc(-c2ncc3cc(C(F)(F)F)ccc3n2)ccc1N1CCn2ncc(N[C@@H](C)CO)c2C1=O | < 200 nM
Cc1cc(-c2ncc3cc(C(F)(F)F)ccc3n2)ccc1N1CCn2ncc(Br)c2C1=O | < 200 nM
Cc1cc(-c2ncc3cc(C(F)(F)F)ccc3n2)ccc1N1CCn2nc(OCCO)c(C)c2C1=O | < 200 nM
Cc1cc(-c2ncc3cc(C(F)(F)F)ccc3n2)ccc1N1CCn2nc(CN3CCN(C)C(=O)C3)c(C)c2C1=O | < 200 nM
Cc1cc(-c2ncc3cc(C(F)(F)F)ccc3n2)ccc1N1CCn2nc(C(C)(C)O)c(C)c2C1=O | < 200 nM
Cc1cc(N2CCOc3cnn(C)c3C2=O)c(F)cc1-c1ccc2nc(C(F)(F)F)ccc2n1 | 500 to 1000 nM
